Hello, the source for this data is patent US10640520B2, in case you need it.

Target: LMP7 (Homo sapiens, UniProt P20618+P28062)
Assay: Determination of LMP7 activity (fluorescence intensity assay, Suc-LLVY-AMC)
Assay type: biochemical
Details: purified human immunoproteasome, incubation for 20 minutes
pIC50: −log10 of the molar value.
Below, each of the compounds is paired with its reported pIC50 value.
ASSAY ENDPOINT: pIC50

SMILES CODE	MEASURED VALUE
Cc1ccc(C[C@H](NC(=O)CC[C@@H]2NC(=O)NC2=O)B(O)O)cc1	> 7.30
O=C(CCN1CCCC1=O)N[C@@H](Cc1ccc2ccccc2c1)B(O)O	> 7.30
Cc1ccc(C[C@H](NC(=O)CCN2CCCC2=O)B(O)O)cc1C	> 7.30
Cc1ccc(C[C@H](NC(=O)CCN2CCN(c3ccccc3)C2=O)B(O)O)cc1	> 7.30
O=C(CCN1CCCCC1=O)N[C@H](Cc1ccccc1)B(O)O	6.30 to 7.30
Cc1ccc(C[C@H](NC(=O)CCN2CCC(C)(C)C2=O)B(O)O)cc1	> 7.30
O=C(CCN1CCCC1=O)N[C@H](Cc1ccccc1)B(O)O	> 7.30
O=C(CCN1C(=O)CCCC1=O)N[C@@H](Cc1ccccc1)B(O)O	5.30 to 6.30
O=C(CCN1CCCCS1(=O)=O)N[C@@H](Cc1coc2ccccc12)B(O)O	> 7.30
CC1(C)CCC(=O)N1CCC(=O)N[C@@H](Cc1coc2ccccc12)B(O)O	> 7.30

* * *

Biological target: Beta5 (Homo sapiens, UniProt P20618+P28074)
Assay: Determination of Beta5 activity (fluorescence intensity assay, Suc-LLVY-AMC)
Type: biochemical
Settings: purified human constitutive proteasome, incubation for 20 minutes
Description: Determination of Beta5 Activity: Measurement of Beta5 inhibition is performed in 384 well format based on fluorescence intensity assay. Purified human constitutive proteasome (1.25 nM) and serial diluted compounds in DMSO (range of concentrations from 30 μM to […]) or controls are incubated for 20 minutes or 120 minutes (long incubation) at 25° C. in assay buffer containing 50 mM Tris pH 7.4, 0.03% SDS, 1 mM EDTA and 1% DMSO. […]
pIC50: −log10 of the molar value.
Below, each of the molecules is paired with its reported pIC50 value.

MOLECULE	pIC50
CCN1CCN(CCC(=O)N[C@@H](Cc2coc3ccccc23)B(O)O)C(=O)C1=O	6.30 to 7.30
Cc1ccc(C[C@H](NC(=O)CCN2CCCCC2=O)B(O)O)c(C)c1	5.30 to 6.30
O=C(CCN1CCCCC1=O)N[C@@H](Cc1coc2ccccc12)B(O)O	6.30 to 7.30
O=C(N[C@@H](Cc1coc2ccccc12)B(O)O)C1CCCN1c1ccccc1 (stereo partly drawn)	5.30 to 6.30
Cc1ccc(C[C@H](NC(=O)CC[C@@H]2NC(=O)NC2=O)B(O)O)cc1	5.30 to 6.30
Cc1ccc(C[C@H](NC(=O)CCN2C(=O)CCC2(C)C)B(O)O)cc1	5.30 to 6.30
O=C(CCN1CCCC1=O)N[C@@H](Cc1ccc2c(c1)OCCO2)B(O)O	5.30 to 6.30
O=C(CCN1CCOCC1=O)N[C@@H](Cc1coc2ccccc12)B(O)O	6.30 to 7.30
Cc1ccc(C[C@H](NC(=O)CCN2CCCC2=O)B(O)O)cc1C	5.30 to 6.30
Cc1ccc(C[C@H](NC(=O)CCN2CCC(C)(C)C2=O)B(O)O)cc1	6.30 to 7.30
O=C(CCN1CCN(c2ccccc2)C1=O)N[C@@H](Cc1ccc(F)cc1)B(O)O	6.30 to 7.30
O=C(CCN1CCCC1=O)N[C@H](Cc1ccccc1)B(O)O	5.30 to 6.30
CN1CCN(CCC(=O)N[C@@H](Cc2coc3ccccc23)B(O)O)C(=O)C1	6.30 to 7.30
Cc1ccc(C[C@H](NC(=O)CCN2CCCC2=O)B(O)O)cc1	6.30 to 7.30
O=C(CCN1CC(c2ccccc2)OC1=O)N[C@@H](Cc1coc2ccccc12)B(O)O (stereo partly drawn)	> 7.30
O=C(CCN1CCCCS1(=O)=O)N[C@@H](Cc1coc2ccccc12)B(O)O	6.30 to 7.30
CC1(C)CCC(=O)N1CCC(=O)N[C@@H](Cc1coc2ccccc12)B(O)O	5.30 to 6.30
Cc1ccc(C[C@H](NC(=O)CCN2CCN(c3ccccc3)C2=O)B(O)O)cc1	6.30 to 7.30

* * *

Target: Beta5 (Homo sapiens, UniProt P20618+P28074)
Assay: Determination of Beta5 activity (fluorescence intensity assay, Suc-LLVY-AMC)
Format: biochemical
Details: incubation for 20 minutes
ASSAY ENDPOINT: Selectivity LMP7 vs Beta5

SMILES CODE	MEASURED VALUE
Cc1ccc(C[C@H](NC(=O)CCN2CCCCC2=O)B(O)O)c(C)c1	+++++ (Selectivity ≥ 70)
CC1(C)CCC(=O)N1CCC(=O)N[C@@H](Cc1coc2ccccc12)B(O)O	+++++ (Selectivity ≥ 70)
Cc1ccc(C[C@H](NC(=O)CCN2CCCCC2=O)B(O)O)cc1C	+++++ (Selectivity ≥ 70)

* * *

Below, each of the compounds is paired with its reported pIC50 value.
Target: LMP7 (Homo sapiens, UniProt P20618+P28062)
Test: Determination of LMP7 activity (fluorescence intensity assay, Suc-LLVY-AMC)
Format: biochemical
Settings: purified human immunoproteasome, incubation for 20 minutes
pIC50: −log10 of the molar value.
ASSAY ENDPOINT: pIC50

COMPOUND	ASSAY ENDPOINT	MEASURED VALUE
Cc1ccc(C[C@H](NC(=O)CN2CCCC2=O)B(O)O)cc1	pIC50	6.30 to 7.30
O=C(CCN1CCCCC1=O)N[C@@H](Cc1ccc2ccccc2c1)B(O)O	pIC50	> 7.30
Cc1ccc(C[C@H](NC(=O)CCN2CCCCC2=O)B(O)O)c(C)c1	pIC50	> 7.30
Cc1ccc(C[C@H](NC(=O)CCN2CCCCS2(=O)=O)B(O)O)cc1	pIC50	> 7.30
O=C(N[C@@H](Cc1coc2ccccc12)B(O)O)C1CCCN1c1ccccc1 (stereo partly drawn)	pIC50	> 7.30
O=C(CCN1CCCC1=O)N[C@@H](Cc1coc2ccccc12)B(O)O	pIC50	> 7.30
Cc1ccc(C[C@H](NC(=O)CCN2C(=O)CCC2(C)C)B(O)O)cc1	pIC50	6.30 to 7.30
Cc1ccc(C[C@H](NC(=O)CCN2CCCCC2=O)B(O)O)cc1C	pIC50	> 7.30
CCN1CCN(CCC(=O)N[C@@H](Cc2coc3ccccc23)B(O)O)C(=O)C1=O	pIC50	> 7.30
O=C(CCN1CCCCC1=O)N[C@@H](Cc1coc2ccccc12)B(O)O	pIC50	> 7.30
O=C(CCN1CCOCC1=O)N[C@@H](Cc1coc2ccccc12)B(O)O	pIC50	> 7.30
Cc1ccc(C[C@H](NC(=O)C2CCC(=O)N2c2ccccc2)B(O)O)c(C)c1 (stereo partly drawn)	pIC50	6.30 to 7.30
Cc1ccc(C[C@H](NC(=O)CCN2CCCC2=O)B(O)O)cc1	pIC50	> 7.30
O=C(CCN1CCCC1=O)N[C@@H](Cc1ccc2c(c1)OCCO2)B(O)O	pIC50	> 7.30
O=C(CCN1CC(c2ccccc2)OC1=O)N[C@@H](Cc1coc2ccccc12)B(O)O (stereo partly drawn)	pIC50	> 7.30
O=C(CCN1CCCCC1=O)N[C@@H](Cc1cccc2ccccc12)B(O)O	pIC50	6.30 to 7.30
O=C(CCN1CCN(c2ccccc2)C1=O)N[C@@H](Cc1ccc(F)cc1)B(O)O	pIC50	> 7.30
CCc1cccc(C[C@H](NC(=O)CCCN2CCOC2=O)B(O)O)c1	pIC50	6.30 to 7.30

* * *

Molecular target: LMP7 (Homo sapiens, UniProt P20618+P28062)
Assay: Determination of LMP7 activity (fluorescence intensity assay, Suc-LLVY-AMC)
Assay type: biochemical
Settings: purified human immunoproteasome, incubation for 20 minutes
Below, each of the molecules is paired with its reported IC50 value.

MOLECULE	IC50
O=C(CCN1CC(c2ccccc2)CC1=O)N[C@@H](Cc1ccccc1)B(O)O (stereo partly drawn)	< 50 nM
COCc1ccc(C[C@H](NC(=O)CCN2CCCC2=O)B(O)O)cc1	50 to 500 nM
O=C(CCN1CCCCCC1=O)N[C@@H](Cc1ccccc1)B(O)O	50 to 500 nM
Cc1ccc(C[C@H](NC(=O)CCN2CCCCS2(=O)=O)B(O)O)c(C)c1	< 50 nM
Cc1ccc(C[C@H](NC(=O)CCN2CCCCC2=O)B(O)O)cc1	< 50 nM
O=C(CCN1CCCC1=O)N[C@@H](Cc1cccc2ccccc12)B(O)O	50 to 500 nM
O=C(CN1C(=O)CSC1=O)N[C@@H](Cc1coc2ccccc12)B(O)O	< 50 nM
CN1CCN(CCC(=O)N[C@@H](Cc2coc3ccccc23)B(O)O)C(=O)C1	< 50 nM
O=C(CCN1CCCOC1=O)N[C@@H](Cc1coc2ccccc12)B(O)O	< 50 nM
